Target: T1, SARS-CoV-2 Spike S1 domain A222S, D614G (SARS-CoV-2, UniProt P0DTC2 16-685)
T1 construct: domain: S1; also called Spanish (A222S, D614G)
Assay: HTRF, soluble S1 construct
Reported fold over background by item:
value type: fold over background

[[record]]
binder = "PR197_00647 (antibody, V domains shown) VH: QVQLVESGGGVVQPGRSLRLSCAASGFTFSSYAMHWVRQAPGKGLQWVTLISYDGGDKYYADSVRGRFTISRDNSKNTLYLQMNSLRTEDTAVYYCARDRPQTGDWFPPIPTGVLDVWGQGTTVTVSS VL: DIQMTQSPSSLSASVGDRVTITCRASQGISNYLAWFQQKPGKAPKSLIYAASSLQSGVPSRFSGSESGTDFTLTISSLQPEDFATYYCQQYHSYPITFGQGTRLEIK"
observed_measurement = "9.54 fold over background"

[[record]]
binder = "PR194_00292 (antibody, V domains shown) VH: QVQLQQWGAGLLKPSETLSLTCAVYGGSLSGYYWSWIRQPPGKGLEWIGEINHSGSTNHNPSLKSRVSISVDTSKNQFSLKLSSVTAADTAVYYCARAWKYSSSWYSGGIYYGMDVWGQGTTVTVSS VL: QSALTQPASVSGSPGQSITISCSGTSSDVGSYNLVSWYQQHPGKAPKLMIYEGTKRPSGVSNRFSSSKSGNTASLTISGLQAEDEADYYCCSYAGFSTWVFGGGTKLTVL"
observed_measurement = "1.02 fold over background"

[[record]]
binder = "PR193_00018 (antibody, V domains shown, also called IMM20184; IMM200184) VH: EVQLVESGGGLVQPGGSLRLSCSASGFTFSSFWMSWVRQAPGKGLEWVATIREDGSEKYYVDSVKGRFSISRDNAKNSLYLQMNSLRAEDTAVYYCARSKWLRGSFDYWGQGTLVTVSS VL: NFMLTQPHSVSESPGKTVTISCTRRSGSIASNYVQWYQQRPGSAPTTVIYEDNQRPSGVPDRFSGSIDSSSNSASLTISGLQTEDEADYYCQSYDSSNPPGASWVFGGGTKLTVL"
observed_measurement = "5.43 fold over background"

[[record]]
binder = "PR201_00151 (antibody, V domains shown) VH: RVTLRESGPALVKPTQTLTLTCTFSGFSLNTSGMCVSWIRQPPGKALEWLARIDWDDDKYYSTSLETRLTISKDTSKNQVVLTMTNLDPVDTGTYYCARISIQSRGGGADYWGQGTLVTVSS VL: DIQMTQSPSSLSASVGDRVTITCRASQSISSYLHWYQQKSGKAPKLLIFVASTLQSGVPSRFSGSGSGTDFTLTISSLQPEDSAAYYCQQSYSPPWTFGQGTKVEIK"
observed_measurement = "7.29 fold over background"

